Source listed as patent US6403606B1.

endpoint: melting point

Solved entries:
- compound: "CCOC(=O)c1c(Cn2cncn2)nc2sc3c(c2c1-c1ccc(OC)c(OC)c1)CCN(C(=O)c1ccccc1)C3 [Example 20A]"
  result: "193 to 194 °C"
- compound: "COc1ccc(-c2c(Cl)c(COc3ccccn3)nc3sc4c(c23)CCN(Cc2ccccc2)C4)cc1OC"
  result: "165 to 167 °C"

For reference, reported melting point for CCOC(=O)c1c(Cn2cncn2)nc2sc3ncccc3c2c1-c1ccc(OC)c(OC)c1 [Example 65A] stands at 180 to 182 °C

For reference, reported melting point for `CCC(C)(C)NCc1nc2sc3c(c2c(-c2ccc(OC)c(OC)c2)c1Cl)CCN(Cc1ccccc1)C3` stands at 128 to 129 °C

====

Entries and their Bone resorption inhibitory activity (^45Ca release) (% based on the control value) values follow.
# System: fetal rat bone culture (humeri, radii and ulnae)
# assay_text: Bone resorption inhibitory activity, 45Ca release from fetal rat bone culture (Test Example 2A)
# Assay type: cell-based, Sprague-Dawlay rat
# conditions: 10 μM compound, 2 days culture; 45Ca release as % of control without compound (lower = more inhibition)
Marks after values point to notes of the source that are not given here.

- compound: "CCOC(=O)c1c(CCCn2cncn2)nc2sc3c(c2c1-c1ccc(OC)c(OC)c1)CCN(C(=O)c1ccc(Cl)cc1)C3 [Example 27A]"
  target_under_test: "fetal rat bone culture (humeri, radii and ulnae)"
  result: "74* % based on the control value"
- compound: "CCOC(=O)c1c(CN(CC)CC)nc2sc3c(c2c1-c1ccc(CC)cc1)CCNC3 [Example 33A]"
  target_under_test: "fetal rat bone culture (humeri, radii and ulnae)"
  result: "72** % based on the control value"
- compound: "CCOC(=O)c1c(CN(CC)CC)nc2sc3c(c2c1-c1ccc(OC)c(OC)c1)CCN(C(=O)c1ccc(Cl)cc1)C3"
  target_under_test: "fetal rat bone culture (humeri, radii and ulnae)"
  result: "62** % based on the control value"
- compound: "CCOC(=O)c1c(CCCCn2cncn2)nc2sc3c(c2c1-c1ccc(OC)c(OC)c1)CCN(C(=O)c1ccc(Cl)cc1)C3 [Example 28A]"
  target_under_test: "fetal rat bone culture (humeri, radii and ulnae)"
  result: "67*** % based on the control value"
- compound: "CCOC(=O)c1c(CN(CC)CC)nc2sc3c(c2c1-c1ccc(OC)c(OC)c1)CCNC3"
  target_under_test: "fetal rat bone culture (humeri, radii and ulnae)"
  result: "72* % based on the control value"

Then this compound:
For reference, reported Bone resorption inhibitory activity (^45Ca release) (% based on the control value) for CCOC(=O)c1c(CN(CC)CC)nc2sc3c(c2c1-c1ccc(OC)c(OC)c1)CCN(C(=O)Nc1ccccc1)C3 [Example 12A] stands at 77* % based on the control value

====

endpoint: melting point

- molecule: "COc1ccc(C2(Cl)CC(CNC(C)(C)C)=Nc3sc4c(c32)CCNC4)cc1OC (stereo not drawn) [Example 10B]"
  melting point: "162 to 163 °C"
- molecule: "CCOC(=O)c1c(CN(CC)CC)nc2sc3c(c2c1-c1ccc(CC)cc1)CCNC3 [Example 33A]"
  melting point: "107 to 108 °C"
- molecule: "CCOC(=O)c1c(CN(CC)CC)nc2sc3c(c2c1-c1ccc(OC)c(OC)c1)CCNC3 [Example 5A]"
  melting point: "72 to 75 °C"
- molecule: "CCOC(=O)c1c(CN(CC)CC)nc2sc3cnccc3c2c1-c1ccc(O)c(OC)c1 [Example 51A]"
  melting point: "179 to 181 °C"
- molecule: "COc1ccc(-c2c(Cl)c(CN3CCN(C(C)=O)CC3)nc3sc4c(c23)CCN(Cc2ccccc2)C4)cc1OC [Example 14B]"
  melting point: "183 to 184 °C"
- molecule: "COc1cc(-c2c(Cl)c(CNC(C)(C)C)nc3sc4c(c23)CCNC4)ccc1OC(C)C [Example 11B]"
  melting point: "157 to 158 °C"
- molecule: "COc1ccc(-c2c(Cl)c(COC3=NN(c4ccccc4)CC3)nc3sc4c(c23)CCN(Cc2ccccc2)C4)cc1OC [Example 32B]"
  melting point: "157 to 158 °C"
- molecule: "CCOC(=O)c1c(CN(CC)CC)nc2sc3c(c2c1-c1ccc(CC)cc1)CCN(S(=O)(=O)c1ccccc1)C3 [Example 42A]"
  melting point: "140 to 141 °C"

For reference, reported melting point for CCOC(=O)c1c(CN2CCC(C(=O)OCC)CC2)nc2sc3c(c2c1-c1ccc(OC)c(OC)c1)CCN(C(=O)c1ccc(Cl)cc1)C3 [Example 3A] stands at 99 to 101 °C

For reference, reported melting point for CCNCc1nc2sc3c(c2c(-c2ccc(OC)c(OC)c2)c1Cl)CCN(Cc1ccccc1)C3 [Example 1B] stands at 135 to 136 °C

For reference, reported melting point for CCOC(=O)c1c(Cn2cncn2)nc2sc3c(c2c1-c1ccc(OC)c(OC)c1)CCCN3C(=O)OCc1ccccc1 [Example 56A] stands at 184 to 185 °C

For reference, reported melting point for CCN(CC)Cc1nc2sc3c(c2c(-c2ccc(OC)c(OC)c2)c1Cl)CCN(Cc1ccccc1)C3 [Example 2B] stands at 150 to 151 °C

For reference, reported melting point for CCOC(=O)c1c(CCc2nccn2C)nc2sc3c(c2c1-c1ccc(OC)c(OC)c1)CCN(C(=O)c1ccccc1)C3 [Example 23A] stands at 170 to 217 °C

For reference, reported melting point for CCOC(=O)c1c(Cn2cncn2)nc2sc3ccncc3c2c1-c1ccc(OC)c(OC)c1 [Example 66A] stands at 166 to 167 °C

For reference, reported melting point for CCOC(=O)c1c(CN(C)O)nc2sc3c(c2c1-c1ccc(OC)c(OC)c1)CCN(C(=O)c1ccccc1)C3 [Example 25A] stands at 129 to 130 °C
